system: Fibroblast; assay: Multiplex assay against human fibroblast; format: toxicity, cell-based; details: 12 h, 1 µM, compound concentration 1 uM, replicate 1
Measured endpoint: Population Pyknosed Nuclei (%)

compound="COc1ccc2c(c1)C(C(=O)N(Cc1ccc(N(C)C)cc1)c1ccc(C(C)C)cc1)CCC2.Cl (centres undefined)" measured=11%
compound="O=C(NCC(=O)N1CC[C@H](N[C@H]2CC[C@@](O)(c3ccc(-c4ncccn4)cn3)CC2)C1)c1cccc(C(F)(F)F)c1 [PF-4136309]" measured=23%
compound=CN(C)CCCc1cc(C(=O)Nc2ccc(-c3ccncc3)cc2)ccc1O.Cl.Cl measured=18%
compound="Cc1ccc(C(C)(O)c2nc3ccccc3s2)c(C)c1 (centres undefined)" measured=12%
compound="CSc1ccccc1N1CCN(CCCCCC(=O)NC2CCCc3ccccc32)CC1.Cl (centres undefined)" measured=24%
compound="O=S(=O)(c1ccccc1)c1cnc2c(N3CCNCC3)cccc2c1 [INTEPIRDINE]" measured=9%
compound=CN1CCN(c2nc3cc(C(F)(F)F)ccc3n3cccc23)CC1.O=C(O)/C=C\C(=O)O.O=C(O)/C=C\C(=O)O measured=9%
compound=CCOc1c2c(c(OCC)c3ncccc13)CN(c1ccc(CS(=O)(=O)NC(=O)Cc3ccccc3OC)cc1C)C2=O measured=15%
compound="CC(C)(C)c1ccc(S(=O)(=O)Nc2ccc(Cl)cc2C(=O)c2cc[n+]([O-])cc2)cc1 [VERCIRNON]" measured=15%

====

system: U2OS; assay: Multiplex assay against U2OS; assay type: toxicity, cell-based; conditions: human, 48 h, 1 µM, compound concentration 1 uM, replicate 2
Measured endpoint: Population Normal (%)

molecule=CCCn1c(=O)c2[nH]c(C3CCCC3)nc2n(CCC)c1=O measured_endpoint="Population Normal (%)" measured=97
molecule=CC[C@H]1OC(=O)[C@H](C)[C@@H](O[C@H]2C[C@@](C)(OC)[C@@H](O)[C@H](C)O2)[C@H](C)[C@@H](O[C@@H]2O[C@H](C)C[C@H](N(C)C)[C@H]2O)[C@@]2(C)CC(C)=C(O2)[C@H](C)[C@@H](O)[C@]1(C)O measured_endpoint="Population Normal (%)" measured=97
molecule=Oc1c(CN2CCN(c3ccccn3)CC2)cc(Cl)c2cccnc12 measured_endpoint="Population Normal (%)" measured=98
molecule="CN1CCN2c3ncccc3Cc3ccccc3C2C1 (stereo not drawn)" measured_endpoint="Population Normal (%)" measured=95
molecule=CN1CCN(c2nc3cc(C(F)(F)F)ccc3n3cccc23)CC1.O=C(O)/C=C\C(=O)O.O=C(O)/C=C\C(=O)O measured_endpoint="Population Normal (%)" measured=98
molecule="Cc1ccc(C(C)(O)c2nc3ccccc3s2)c(C)c1 (stereo not drawn)" measured_endpoint="Population Normal (%)" measured=96
molecule=N[C@@]1(C(=O)O)CO[C@H]2[C@H](C(=O)O)[C@H]21 measured_endpoint="Population Normal (%)" measured=97
molecule=C[C@H](NC(=O)c1c(C(F)F)nn(C)c1Oc1cccc(C(F)(F)F)c1)c1ccc(C(=O)O)cc1 measured_endpoint="Population Normal (%)" measured=99

====

// values below are reported Population Membrane Permeable-Phenotype (%)
system: Fibroblast; test: Multiplex assay against human fibroblast; type: toxicity, cell-based; conditions: 12 h, 1 µM, compound concentration 1 uM, replicate 1
Measured endpoint: Population Membrane Permeable-Phenotype (%)

compound=c1cc(OCCCN2CCCCC2)ccc1CN1CCCCC1 display_unit=% measured=0
compound=C[C@H](NC(=O)c1c(C(F)F)nn(C)c1Oc1cccc(C(F)(F)F)c1)c1ccc(C(=O)O)cc1 display_unit=% measured=0
compound=CCOc1c2c(c(OCC)c3ncccc13)CN(c1ccc(CS(=O)(=O)NC(=O)Cc3ccccc3OC)cc1C)C2=O display_unit=% measured=1
compound=O=C(NCC(=O)N1CC[C@H](N[C@H]2CC[C@@](O)(c3ccc(-c4ncccn4)cn3)CC2)C1)c1cccc(C(F)(F)F)c1 display_unit=% measured=1
compound=CCCC(CCC)C(=O)O display_unit=% measured=2
compound=CCCn1c(=O)c2[nH]c(C3CCCC3)nc2n(CCC)c1=O display_unit=% measured=0
compound=N#Cc1c(N)nc(SCc2csc(-c3ccc(Cl)cc3)n2)c(C#N)c1-c1ccc(OCCO)cc1 display_unit=% measured=0
compound="COc1ccc2c(c1)C(C(=O)N(Cc1ccc(N(C)C)cc1)c1ccc(C(C)C)cc1)CCC2.Cl (centres undefined)" display_unit=% measured=1
compound=O=C(O)Cc1ccccc1Nc1c(Cl)cccc1Cl display_unit=% measured=1
